Values compiled from patent US20260285888A1.

assay: Study for confirmation of conversion to brexpiprazole in a buffer (stability of the evaluation compounds); type: physicochemical; conditions: in buffer; 60-minute reaction sample; average of duplicate
experimental-endpoint: Concentration of brexpiprazole formed
Lab note: write values as number then unit, every time.

Example entries and their recorded answers appear below.
{"compound": "CCOC(=O)CNP(=O)([O-])OC[N+]1(CCCCOc2ccc3ccc(=O)[nH]c3c2)CCN(c2cccc3sccc23)CC1", "reported-measurement": "0 nM"}
{"compound": "COCCOCCOCCOC(=O)OCOP(=O)([O-])OC[N+]1(CCCCOc2ccc3ccc(=O)[nH]c3c2)CCN(c2cccc3sccc23)CC1", "reported-measurement": "0 nM"}
{"compound": "CCCCCCOC(=O)OC[N+]1(CCCCOc2ccc3ccc(=O)[nH]c3c2)CCN(c2cccc3sccc23)CC1.[I-] [REX 7, reference compound]", "reported-measurement": "240 nM"}
{"compound": "CC(C)(C)OC(=O)CCCC(=O)OCOP(=O)([O-])OC[N+]1(CCCCOc2ccc3ccc(=O)[nH]c3c2)CCN(c2cccc3sccc23)CC1", "reported-measurement": "0 nM"}
{"compound": "COCCOCOCCCCOP(=O)([O-])OC[N+]1(CCCCOc2ccc3ccc(=O)[nH]c3c2)CCN(c2cccc3sccc23)CC1", "reported-measurement": "0 nM"}

Note down Concentration of brexpiprazole formed recorded for CCCCOCCOP(=O)([O-])OC[N+]1(CCCCOc2ccc3ccc(=O)[nH]c3c2)CCN(c2cccc3sccc23)CC1 0 nM
